Experimental System: PDE4D3 (Homo sapiens)
Construct: GST
Assay type: biochemical
Test Parameters: GST-tagged PDE4D3, 200 nM FAM-cAMP, 11-point dose-response; read-out: PD4d3 pEC50 (converted)
This listing pairs molecules with measured EC50.

Query :: Fill in EC50 for record CCOc1ncc(Cn2cnc(CO)n2)cc1-c1ccc(F)cc1
Result :: 100 to 1000 nM

Query :: Report EC50, nothing else, for this molecule: CCOc1ncc(Cn2nc(CO)cc2C)cc1-c1cccc(Cl)c1
Result :: < 100 nM

Query :: Identify the reported EC50 for the following entry. COc1ncc(Cn2nnnc2C)cc1-c1cccc(Cl)c1
Result :: < 100 nM

Query :: Specify measured EC50 for CCOc1ncc(Cn2nc(C)cc2CO)cc1-c1cccc(Cl)c1 .
Result :: > 10000 nM

Query :: Supply reported EC50 belonging to this molecule: Cc1nc(CO)cn1Cc1cnc(OC(F)F)c(-c2cccc(Cl)c2)c1
Result :: 100 to 1000 nM

Query :: Could you please provide reported EC50 for COc1ncc(Cc2cnc(NCCO)nc2)cc1-c1ccc(F)c(F)c1 ? Thanks!
Result :: < 100 nM

Query :: Give me measured EC50, please, for this molecule: CCOc1cc(-c2cc(Cc3cnc(N)nc3)cnc2OC)ccn1
Result :: < 100 nM

Query :: Quote EC50 reported for CCOc1ncc(Cn2cnc(CO)n2)cc1-c1ccccc1F please.
Result :: > 10000 nM

Query :: Could you please provide reported EC50 for COc1ncc(Cn2nnc(CO)n2)cc1-c1ccc(F)cc1 ? Thanks!
Result :: 100 to 1000 nM

Query :: Given the molecule CCOc1ncc(Cn2cnc(CO)n2)cc1-c1ccc(F)c(Cl)c1 , write its reported EC50.
Result :: < 100 nM

Query :: Read off the recorded EC50 for CCOc1ncc(Cn2nnnc2C)cc1-c1cc(F)cc(OC)c1
Result :: 100 to 1000 nM

Query :: Please report EC50 for the following molecule: COc1ncc(Cc2cnc(CC(N)=O)nc2)cc1-c1ccc(F)cc1
Result :: < 100 nM

Query :: Supply recorded EC50 for CCOc1cccc(-c2cc(Cn3nnnc3C)cnc2OCC)c1 here.
Result :: 100 to 1000 nM

###

Experimental System: PDE4D3 (Homo sapiens)
Construct: GST
Assay type: biochemical
Test Parameters: GST-tagged PDE4D3, 200 nM FAM-cAMP, 11-point dose-response; read-out: PD4d3 pEC50 (converted)
Property Label: EC50

See these solved cases before continuing.
CCOc1ncc(Cn2cnc(C(N)=O)c2)nc1-c1ccc(F)c(F)c1 | 100 to 1000 nM
CCOc1ncc(Cn2nnc(C)n2)cc1-c1ccc(F)cc1 | < 100 nM
CCOc1cc(-c2cc(Cc3cnc(CO)c(F)c3)cnc2OCC(F)F)ccn1 | < 100 nM
CCOc1ncc(Cn2nnnc2C)cc1-c1cccc(OC(F)F)c1 | < 100 nM
COc1ncc(Cc2ccc(C#N)cn2)cc1-c1cccc(Cl)c1 | 100 to 1000 nM

Query :: Please indicate EC50 recorded for CCOc1ncc(Cc2cnc(N)nc2)cc1-c1ccc(F)c(F)c1
Result :: < 100 nM

Query :: Give the measured EC50 for CCOc1ncc(Cn2nnnc2C)cc1-c1ccc(F)cc1
Result :: < 100 nM

Query :: Report EC50 for CCOc1ncc(Cn2cnc(CO)n2)cc1-c1ccc(Cl)cc1
Result :: 100 to 1000 nM

###

Experimental System: PDE4D3 (Homo sapiens, UniProt Q08499)
Construct: GST
Sequence (Q08499 1-673 isoform Q08499-2): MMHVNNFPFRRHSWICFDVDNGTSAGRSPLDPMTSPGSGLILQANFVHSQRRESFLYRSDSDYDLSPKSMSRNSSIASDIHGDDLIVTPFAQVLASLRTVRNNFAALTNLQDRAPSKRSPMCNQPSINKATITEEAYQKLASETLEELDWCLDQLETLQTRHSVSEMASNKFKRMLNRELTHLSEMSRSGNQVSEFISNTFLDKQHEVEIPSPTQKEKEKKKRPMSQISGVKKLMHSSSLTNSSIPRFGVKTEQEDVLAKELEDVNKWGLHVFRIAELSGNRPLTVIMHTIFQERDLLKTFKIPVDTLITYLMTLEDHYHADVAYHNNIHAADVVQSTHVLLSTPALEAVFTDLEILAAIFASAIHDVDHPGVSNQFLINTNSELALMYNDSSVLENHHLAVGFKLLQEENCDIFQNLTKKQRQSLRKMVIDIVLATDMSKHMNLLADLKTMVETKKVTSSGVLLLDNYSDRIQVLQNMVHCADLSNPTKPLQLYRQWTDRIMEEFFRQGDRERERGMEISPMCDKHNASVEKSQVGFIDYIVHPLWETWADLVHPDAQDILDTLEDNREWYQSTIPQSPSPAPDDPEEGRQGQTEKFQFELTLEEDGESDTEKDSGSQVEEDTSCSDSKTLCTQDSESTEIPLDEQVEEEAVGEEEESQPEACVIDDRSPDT
Assay type: biochemical
Test Parameters: GST-tagged PDE4D3, 200 nM FAM-cAMP, 11-point dose-response; read-out: PD4d3 pEC50 (converted)
Property Label: EC50

CCOc1ncc(Cn2nnnc2C)cc1-c1ccnc(OC(F)F)c1 | < 100 nM

Query :: Supply reported EC50 belonging to this molecule: CCOc1ncc(Cn2cc(C(F)F)nc2C)nc1-c1cccc(Cl)c1
Result :: 100 to 1000 nM

Query :: Supply recorded EC50 for CCOc1ncc(Cn2cc(CO)nc2C)nc1-c1cccc(Cl)c1 here.
Result :: 100 to 1000 nM

Query :: Consider the molecule COc1ncc(Cc2cnc(OCC(N)=O)nc2)cc1-c1cccc(Cl)c1 . State its measured EC50.
Result :: < 100 nM
